Reference for the values: PubChem BioAssay (Tox21)

measurement protocol: qHTS assay for identifying genotoxic compounds that show differential cytotoxicity against isogenic chicken DT40 cell lines with known DNA damage response pathways - wild type cell line (AID 743012); note: nearly all actives have a fitted effect of over 60% in size; note: potency is the fitted concentration of half-maximal effect
condition description: DT40 wild type chicken cells viability, CellTiter-Glo, 40 h; series mostly up to 68.4 µM
Records with an inconclusive call do not appear. The source made the active and inactive calls. Calls come from the whole dose curve; as a rule, active = well fitted cell-killing curve with a large enough effect in the repeat runs; inconclusive = weak or mixed curves, or effect the other way; inactive = no such curve, though single readings can be large or run the other way.
measured endpoint: Potency

{"molecule": "CN1C(=O)c2ccc([N+](=O)[O-])cc2C1=O", "result": "inactive"}
{"molecule": "CC1COc2c(N3CCN(C)CC3)c(F)cc3c(=O)c(C(=O)O)cn1c23 (configuration not stated)", "result": "inactive"}
{"molecule": "Nc1nc2ccccc2[nH]1", "result": "inactive"}
{"molecule": "OCC(CO)N[C@H]1C[C@](O)(CO)[C@@H](O)[C@H](O)[C@H]1O", "result": "inactive"}
{"molecule": "c1ccc2c(c1)-c1cccc3c1c-2cc1ccccc13", "result": "inactive"}
{"molecule": "CCCCC(CC)COC(=O)CC(C(=O)OCC(CC)CCCC)S(=O)(=O)O (configuration not stated)", "result": "inactive"}
{"molecule": "Cc1cccc([N+](=O)[O-])c1C(=O)O", "result": "inactive"}
{"molecule": "Cc1scc2c1N(C(=O)CN1CCN(C)CC1)c1ccccc1NC2=O", "result": "inactive"}
{"molecule": "CC(C(O)c1ccc(O)cc1)N1CCC(Cc2ccccc2)CC1 (configuration not stated)", "result": "2.11 µM (active)"}
{"molecule": "COc1ccc(COC(C)=O)cc1", "result": "inactive"}
{"molecule": "CCOC(=O)C(C)C(C)=O (configuration not stated)", "result": "inactive"}
{"molecule": "CO[Si](OC)(OC)c1ccccc1", "result": "inactive"}
{"molecule": "O=C1Nc2ccccc2C1(c1ccc(O)cc1)c1ccc(O)cc1", "result": "68.6 µM (active)"}
{"molecule": "CC(=O)CC(=O)Nc1ccc2[nH]c(=O)[nH]c2c1", "result": "inactive"}
{"molecule": "CCc1ccc(C(c2ccc(CC)cc2)C(Cl)Cl)cc1", "result": "inactive"}
{"molecule": "O=C(O)CCc1ccccc1", "result": "inactive"}
{"molecule": "O=C(Cl)c1cccc(C(=O)Cl)c1", "result": "inactive"}
{"molecule": "Nc1cc(S(=O)(=O)O)cc2cc(S(=O)(=O)O)cc(O)c12", "result": "inactive"}
{"molecule": "CC(C)(O)CCC(C)(C)O", "result": "inactive"}
{"molecule": "CCn1c2ccccc2c2cc(N)ccc21", "result": "61.1 µM (active)"}
{"molecule": "CC(C)(C)NCC(O)c1cc(O)cc(O)c1 (configuration not stated)", "result": "inactive"}
{"molecule": "COC(c1ccccc1)(c1ccccc1)[C@H](Oc1nc(C)cc(C)n1)C(=O)O", "result": "inactive"}
{"molecule": "CCCNC(C)C(=O)Nc1ccccc1C (configuration not stated)", "result": "inactive"}
{"molecule": "Cc1cccc(O)c1C", "result": "inactive"}
{"molecule": "C=CC(=O)OCCCCCCOC(=O)C=C", "result": "24.3 µM (active)"}
{"molecule": "CC(=O)O[C@]1(C(C)=O)CC[C@H]2[C@@H]3C[C@H](C)C4=CC(=O)CC[C@]4(C)[C@H]3CC[C@@]21C", "result": "5.31 µM (active)"}
{"molecule": "CNC1(C)C2CCC(C2)C1(C)C (configuration not stated)", "result": "inactive"}
